Just for reference, patent US11807628B2 is where these values come from.

# System: NCI-N87
# Protocol Summary: In vitro analysis of benzodiazepine dimer derivatives, MTT cell viability
# Format: cell-based
# Test Settings: Homo sapiens, NCI-N87, 144 h; MTT assay, 6 days incubation
Readout: IC50 (pM)
Report as a plain number; the unit pM is understood.

Worked set:
>  <Molecule>
C=C1C[C@H]2C=Nc3cc(OCc4cncc(COc5cc6c(cc5OC)C(=O)N5CC(=C)C[C@H]5C=N6)c4)c(OC)cc3C(=O)N2C1 [Compound D-2, (Pyridine)-PBD-Dimer]

>  <Test Target>
NCI-N87

>  <Reported Result>
104

$$$$
>  <Molecule>
COc1cc2c(cc1OCc1cc(O)cc(COc3cc4c(cc3OC)C(=O)N3c5ccccc5C[C@H]3C=N4)c1)N=C[C@@H]1Cc3ccccc3N1C2=O [Compound D-7, (Phenol)-IBD-Dimer]

>  <Test Target>
NCI-N87

>  <Reported Result>
118

$$$$
>  <Molecule>
COc1cc2c(cc1OCc1cccc(COc3cc4c(cc3OC)C(=O)N3Cc5ccccc5C[C@H]3C=N4)c1)N=C[C@@H]1Cc3ccccc3CN1C2=O [Ref-1, reference compound]

>  <Test Target>
NCI-N87

>  <Reported Result>
3.5

$$$$
>  <Molecule>
COc1cc2c(cc1OCc1cc(COc3cc4c(cc3OC)C(=O)N3Cc5cc(O)ccc5C[C@H]3C=N4)cc(CN(C)C)c1)N=C[C@@H]1Cc3ccccc3CN1C2=O [Compound D-12]

>  <Test Target>
NCI-N87

>  <Reported Result>
2030

$$$$

Please examine the following record next.
// lookup IC50 | system=NCI-N87 | key= COc1cc2c(cc1OCc1cncc(COc3cc4c(cc3OC)C(=O)N3Cc5ccccc5C[C@H]3C=N4)c1)N=C[C@@H]1Cc3ccccc3CN1C2=O [Compound D-4, (Pyridine)-TBD-Dimer]
3.8

----------
# System: PC-3
# Protocol Summary: In vitro analysis of benzodiazepine dimer derivatives, MTT cell viability
# Type: cell-based
# Test Settings: Homo sapiens, PC-3, 144 h; MTT assay, 6 days incubation
The following compounds are listed with their measured pIC50 values.
Kindly note that pIC50 refers to -log10 of the concentration in mol/L and answer with the value alone.

Which value of pIC50 has been reported for `COc1cc2c(cc1OCc1cc(O)cc(COc3cc4c(cc3OC)C(=O)N3Cc5ccccc5C[C@H]3C=N4)c1)N=C[C@@H]1Cc3ccccc3CN1C2=O` in the records?
10.49

What do we get for `C=C1C[C@H]2C=Nc3cc(OCc4cncc(COc5cc6c(cc5OC)C(=O)N5CC(=C)C[C@H]5C=N6)c4)c(OC)cc3C(=O)N2C1` ?
10.31

What do we get for `COc1cc2c(cc1OCc1cc(COc3cc4c(cc3OC)C(=O)N3Cc5ccccc5C[C@H]3C=N4)cc(CN(C)C)c1)N=C[C@@H]1Cc3ccccc3CN1C2=O` ?
11.36

What do we get for `C=C1C[C@H]2C=Nc3cc(OCc4cc(O)cc(COc5cc6c(cc5OC)C(=O)N5CC(=C)C[C@H]5C=N6)c4)c(OC)cc3C(=O)N2C1` ?
9.90

----------
# System: NCI-N87
# Protocol Summary: In vitro analysis of benzodiazepine dimer derivatives, MTT cell viability
# Type: cell-based
# Test Settings: Homo sapiens, NCI-N87, 144 h; MTT assay, 6 days incubation
# Protocol: Example 85: In Vitro Analysis of Benzodiazepine Dimer Derivatives A-498, HCT-116, JIMT-1, MIA-PaCa-2 and HEK-293E were seeded into 24-well plates at 10×10^3 cells/1 mL medium/well. Calu-6, PC-3 and SK-OV-3 were seeded into 24-well plates at 15×10^3 cells/1 mL medium/well. […] Cell viability was determined by the MTT assay and IC50 was generated using a sigmoidal dose-response nonlinear regression curve fit (GraphPad Software Inc.).
The following compounds are listed with their measured IC50 values.
Report as a plain number; the unit pM is understood.

>  <Compound>
COc1cc2c(cc1OCCCCCOc1cc3c(cc1OC)C(=O)N1Cc4cc(O)ccc4C[C@H]1C=N3)C=N[C@@H]1Cc3ccccc3CN1C2=O [Compound D-13]

>  <Endpoint Unit>
pM

>  <IC50>
2030

$$$$
>  <Compound>
C=C1C[C@H]2C=Nc3cc(OCc4cc(COc5cc6c(cc5OC)C(=O)N5CC(=C)C[C@H]5C=N6)cc(CN(C)C)c4)c(OC)cc3C(=O)N2C1 [Compound D-10]

>  <Endpoint Unit>
pM

>  <IC50>
663

$$$$

Please examine the following record next.
Which value of IC50 has been reported for C=C1C[C@H]2C=Nc3cc(OCc4cc(O)cc(COc5cc6c(cc5OC)C(=O)N5CC(=C)C[C@H]5C=N6)c4)c(OC)cc3C(=O)N2C1 [Compound D-1, (Phenol)-PBD-Dimer] in the records?
191
